Every entry's value here was drawn from patent US20090081197A1.

maximal decrease in food intake reference
# ASSAY_PROTOCOL: IP (and IN) food intake, mice
# Assay type: in vivo
# TEST_SETTINGS: mouse, IP, 3 mg/kg, 4 hours
Non-standard residues stand in square brackets, D forms with d. Residues, ends and D or L forms follow the SMILES beside them. *: point of attachment. dPhe(4-Cl) = N[C@H](Cc1ccc(Cl)cc1)C(=O)O; Ahp = NCCCCCCC(=O)O; Bn = c1ccc(C*)cc1
Give your result in % as a bare value.

Below, 3 compounds whose answers are already recorded.
Cc1cc(Cl)ccc1C[C@@H](N)C(=O)N1C[C@@H](C)N(CCc2c[nH]c3ccccc23)C[C@@H]1CCCNC(=N)N = 10
C[C@@H]1CN(C(=O)[C@H](N)Cc2ccc(Cl)cc2)[C@@H](CCCNC(=N)N)CN1CCc1ccc2ccccc2c1 = 46
C[C@@H]1CN(C(=O)[C@H](N)Cc2ccc(Cl)cc2Cl)[C@@H](CCCNC(=N)N)CN1CCc1ccc2ccccc2c1 = 10

Below: the item to evaluate.
Q: Look up and report measured maximal decrease in food intake for this entry: N=C(N)NCCC[C@H](NC(=O)[C@@H](Cc1ccc(Cl)cc1)NC(=O)[C@H](COCc1ccccc1)NC(=O)CCCCCCN)C(=O)N[C@@H](Cc1c[nH]c2ccccc12)C(N)=O [Example 1] (H-[Ahp]S(Bn)[dPhe(4-Cl)]RW-NH2)
A: 26

* * *

# ASSAYED_TARGET: MC1-R (Mus musculus, UniProt Q01727)
# Construct: B-16 mouse melanoma cells (containing MC1-R); endogenous in cells
# Sequence (Q01727 whole entry): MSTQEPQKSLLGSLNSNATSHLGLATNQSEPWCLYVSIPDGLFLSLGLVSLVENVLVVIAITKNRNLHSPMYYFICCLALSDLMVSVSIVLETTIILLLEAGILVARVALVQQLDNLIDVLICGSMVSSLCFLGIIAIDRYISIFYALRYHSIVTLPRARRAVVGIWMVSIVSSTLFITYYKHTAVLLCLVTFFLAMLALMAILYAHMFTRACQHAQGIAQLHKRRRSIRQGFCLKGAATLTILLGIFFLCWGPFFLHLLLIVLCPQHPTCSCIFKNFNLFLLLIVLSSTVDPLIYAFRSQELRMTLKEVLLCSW
# ASSAY_PROTOCOL: Competitive inhibition assay using [I^125]-NDP-α-MSH, B-16 mouse melanoma cell membranes
# Assay type: binding
# TEST_SETTINGS: 1 μM test compound; read-out: Inhibition at 1 μM (NDP-α-MSH) In Normal System, MC1-R
Positions of bridges follow the written chain, without caps; N, C: chain ends. Non-standard residues stand in square brackets, D forms with d. Residues, ends and D or L forms follow the SMILES beside them. 2Nal = N[C@@H](Cc1ccc2ccccc2c1)C(=O)O; d2Nal = N[C@H](Cc1ccc2ccccc2c1)C(=O)O; Nle = CCCC[C@H](N)C(=O)O
PROPERTY: inhibition at 1 µM (%)
Give your result in % as a bare value.

C[C@@H]1CN(C(=O)[C@H](N)Cc2ccc3ccccc3c2)[C@@H](CCCNC(=N)N)CN1C(=O)Cc1c[nH]c2ccccc12 = 20

Q: Look up and report measured inhibition at 1 µM for this entry: CCCC[C@H](NC(C)=O)C(=O)N[C@H]1CC(=O)NCCCC[C@@H](C(=O)O)NC(=O)[C@H](Cc2ccc3ccccc3c2)NC(=O)[C@H](CCCNC(=N)N)NC(=O)[C@@H](Cc2ccc3ccccc3c2)NC(=O)[C@H](Cc2c[nH]cn2)NC1=O [Example 34] (Ac-[Nle]DH[d2Nal]R[2Nal]K-OH; lactam 2-7)
A: 102

Q: Look up and report measured inhibition at 1 µM for this entry: CCCC[C@H](NC(C)=O)C(=O)N[C@H]1CC(=O)NCCCC[C@@H](C(=O)NCC)NC(=O)[C@H](Cc2cccc3ccccc23)NC(=O)[C@H](CCCNC(=N)N)NC(=O)[C@@H](Cc2ccccc2)NC(=O)[C@H](Cc2c[nH]cn2)NC1=O
A: 100
